Data origin: patent US20150004189A1

# tested_system: HLA DQ molecule DQB1*0503 (human)
# method_notes: inhibition of radiolabeled peptide binding to purified HLA class II
assay_endpoint: pIC50
Schema: pIC50 number; meaning minus log10 of the concentration expressed in molar units.

### Prompt Could you tell me which pIC50 is on file for QVAQYKALPVVLENA [Fel d 1 1 (46-60) peptide QVAQYKALPVVLENA, Peptide ID 3324.1051] ?
### Response 6.21

### Prompt Could you tell me which pIC50 is on file for GGRLAFQEFMIVPSG [Cla h 6 (161-175) peptide GGRLAFQEFMIVPSG, Peptide ID 3324.0588] ?
### Response 5.61

### Prompt Could you tell me which pIC50 is on file for IFYDVFFAVANGNEL [Fel d 1 2 (26-40) peptide IFYDVFFAVANGNEL, Peptide ID 3324.1052] ?
### Response 5.09

### Prompt Could you tell me which pIC50 is on file for KELKGAYVYFASDAS [Cla h 8 (236-250) peptide KELKGAYVYFASDAS, Peptide ID 3324.0598] ?
### Response 6.29

### Prompt Could you tell me which pIC50 is on file for NGNELLLDLSLTKVN [Fel d 1 2 (36-50) peptide NGNELLLDLSLTKVN, Peptide ID 3324.1055] ?
### Response 5.03

### Prompt Could you tell me which pIC50 is on file for GCIHMARSLANEWRD [Cla h 8 (181-195) peptide GCIHMARSLANEWRD, Peptide ID 3324.0602] ?
### Response 6.19

### Prompt Could you tell me which pIC50 is on file for FSGVAATESAYLAYR [Der f 1 (136-150) peptide FSGVAATESAYLAYR, Peptide ID 3324.0666] ?
### Response 5.38

### Prompt Could you tell me which pIC50 is on file for PAVKYIEPDMIVNAT [Pen ch 13 (101-115) peptide PAVKYIEPDMIVNAT, Peptide ID 3324.1304] ?
### Response 5.75

### Prompt Could you tell me which pIC50 is on file for GTGSLVITASMSGHI [Cla h 8 (151-165) peptide GTGSLVITASMSGHI, Peptide ID 3324.0603] ?
### Response 4.86

### Prompt Could you tell me which pIC50 is on file for QIDAFIANAGATADS [Cla h 8 (101-115) peptide QIDAFIANAGATADS, Peptide ID 3324.0601] ?
### Response 7.08

### Prompt Could you tell me which pIC50 is on file for GSCWAFSGVAATESA [Der f 1 (131-145) peptide GSCWAFSGVAATESA, Peptide ID 3324.0670] ?
### Response 5.10

### Prompt Could you tell me which pIC50 is on file for NALSVLDKIYTSPLC [Fel d 1 1 (78-92) peptide NALSVLDKIYTSPLC, Peptide ID 3324.1050] ?
### Response 5.23
